# test: Cell Viability - LYMP2-020 (AID 986);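 further: cells exposed to compound for 24 h at 37 °C; nearly all actives have a fitted effect of over 55% in size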
# applied_conditions: series mostly up to 92.2 µM
Records with an inconclusive call do not appear. Active and inactive are the calls of the source. The call rests on the fitted dose curve; in most records, active means well fitted cell-killing curve with a large enough effect; inconclusive means small, poorly fitted or top-dose-only effect; inactive means flat fitted curve, though single readings scatter.
// classify into active, inactive

• N#CSCSC#N = active
• C#CCO = inactive
• O=C(O)C1C(C(=O)O)C2(Cl)C(Cl)=C(Cl)C1(Cl)C2(Cl)Cl (stereo unspecified) = inactive
• Oc1c(Br)c(Br)c(Br)c(Br)c1Br = inactive
• [CH3][Hg][Cl] = active

Recorded call for O=Nc1ccc(Nc2ccccc2)cc1 ? active

----------
Could you please report measured max response for the items listed next?
# test: qHTS assay for small molecule antagonists of retinoid X receptor alpha signaling (AID 588546);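 further: cells stimulated with 9-cis-retinoic acid as agonist; on the % scale 0 is the no-effect control and ±100 the full control effect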
# applied_conditions: HEK293T RXRa-UAS-bla, beta-lactamase ratio, antagonist mode; measured here: W530 green channel, cytotoxicity proxy
Records with an inconclusive call do not appear.
One number for each entry, in %.

See these solved cases before continuing.
* CNC(=S)S | -10.7
* C=CC(=O)OCC(CO)(COC(=O)C=C)COC(=O)C=C | -17.9

For every item in the list below, what is its measured max response?
1. CC(C)(C)C(=O)[C@H](Oc1ccc(Cl)cc1)n1cncn1
2. COC(=O)c1c(C(F)F)nc(C(F)(F)F)c(C2=NCCS2)c1CC(C)C
3. [CH3][Sn]([Cl])([Cl])[Cl]
4. CCCCOC(=O)[C@@H](C)Oc1ccc(Oc2ccc(C#N)cc2F)cc1
5. CC1(C)[C@H](C(=O)O[C@H](C#N)c2cccc(Oc3ccccc3)c2)[C@@H]1/C=C(\Cl)C(F)(F)F

1: 20.1; 2: -11.1; 3: -11; 4: 13.4; 5: -6.94

// for each compound below, give its max response
1. O=C(CCl)c1ccccc1
2. Clc1ccc(-c2cc(Cl)c(Cl)cc2Cl)cc1Cl
3. CC(C)(C)[C@@H](O)/C(=C\c1ccc(Cl)cc1Cl)n1cncn1
4. O=[N+]([O-])c1ccc(Nc2ccccc2)cc1
5. CS/C(C)=N/OC(=O)N(C)SN(C)C(=O)O/N=C(\C)SC
6. CCOc1nc(NC)nc(NC(=O)NS(=O)(=O)c2ccccc2C(=O)OC)n1
7. COCC(=O)N(c1c(C)cccc1C)N1CCOC1=O
8. CCOP(=S)(OCC)SCC(=O)NC(C)C

1: -13.4; 2: -9.16; 3: 18.6; 4: -4.45; 5: 3.2; 6: -10.6; 7: -10.4; 8: -8.13

----------
# test: qHTS assay for small molecule activators of the p53 signaling pathway (AID 651743); further: % of control where 0% means no effect
# applied_conditions: HCT-116 p53RE-bla, beta-lactamase FRET ratio, 16 h; stronger effect = higher value
Results filed as inconclusive are left out.
measured_attribute: activation (%)
Give bare numbers, in %.

Here are 2 compounds together with their reported answers.
* CC1COC(Cn2cncn2)(c2ccc(Oc3ccc(Cl)cc3)cc2Cl)O1 (configuration not stated) | 12.1
* COP(=O)(NC(C)=O)SC (configuration not stated) | -0.529

Batch request: activation for each of the following compounds.
1. C1CC[CH]([Sn]([CH]2CCCCC2)[CH]2CCCCC2)CC1
2. [CH3][Sn]([Cl])([Cl])[Cl]

-8.17
-2.75

I'm hoping you can list activation for every compound here, please.
1. CC(C)COP(=O)(OCC(C)C)OCC(C)C
2. N#CCNC(=O)c1cnccc1C(F)(F)F
3. CCNc1nc(NC(C)(C)C)nc(SC)n1

[-2.4, -2.69, 13.8]

These data points were gathered from PubChem BioAssay (NCATS).
